experiment: qHTS of pediatric cancer cell lines to identify multiple opportunities for drug repurposing: Primary screen for Rh30 cells (AID 1347107); settings: Rh30 rhabdomyosarcoma viability, CellTiter-Glo luminescence, 48 h; series mostly up to 46 µM; also: nearly all actives have a fitted effect of over 75% in size
Records with an inconclusive call do not appear. Calls of active or inactive are those of the source. Calls follow the shape of the dose curve; as a rule, active = well fitted cell-killing curve with a large enough effect; inconclusive = small, poorly fitted or top-dose-only effect; inactive = no such curve, though single readings can be large or run the other way.
Possible outcomes: t (active), f (inactive)

{"compound_structure_string": "N#Cc1ccc(NC(=O)Nc2ccccc2Br)c2n[nH]nc12", "assigned_label": "f"}
{"compound_structure_string": "O=C(O)c1ccc(-c2c[nH]c3ncc(-c4ccccc4)cc23)cc1C1CCCC1", "assigned_label": "f"}
{"compound_structure_string": "O=C(O)C=Cc1ccc(O)c(O)c1", "assigned_label": "t"}
{"compound_structure_string": "Nc1ncnc2c1ncn2[C@@H]1O[C@@H](CO)[C@H](O)[C@H]1O", "assigned_label": "f"}
{"compound_structure_string": "CCc1ccc(OCc2ccccc2C(=O)Nc2ccc3nc(C)cc(N)c3c2)cc1", "assigned_label": "t"}
{"compound_structure_string": "O=c1ccn([C@@H]2O[C@H](CO)[C@H](O)[C@H]2O)c(=O)[nH]1", "assigned_label": "f"}
{"compound_structure_string": "CON=C(C(=O)N[C@@H]1C(=O)N2C(C(=O)OCOC(=O)C(C)(C)C)=C(C=Cc3scnc3C)CS[C@H]12)c1csc(N)n1", "assigned_label": "f"}
{"compound_structure_string": "CC[C@]1(O)C[C@@H]2CN(CCc3c([nH]c4ccccc34)[C@@](C(=O)OC)(c3cc4c(cc3OC)N(C)[C@H]3[C@@](O)(C(=O)OC)[C@H](OC(C)=O)[C@]5(CC)C=CCN6CC[C@]43[C@@H]65)C2)C1", "assigned_label": "f"}
{"compound_structure_string": "O=C(O)Cc1cccc2ccccc12", "assigned_label": "f"}
